# tested_system: human NOX4 (hNOX4) (Homo sapiens, UniProt Q9NPH5)
# Sequence (Q9NPH5 1-578): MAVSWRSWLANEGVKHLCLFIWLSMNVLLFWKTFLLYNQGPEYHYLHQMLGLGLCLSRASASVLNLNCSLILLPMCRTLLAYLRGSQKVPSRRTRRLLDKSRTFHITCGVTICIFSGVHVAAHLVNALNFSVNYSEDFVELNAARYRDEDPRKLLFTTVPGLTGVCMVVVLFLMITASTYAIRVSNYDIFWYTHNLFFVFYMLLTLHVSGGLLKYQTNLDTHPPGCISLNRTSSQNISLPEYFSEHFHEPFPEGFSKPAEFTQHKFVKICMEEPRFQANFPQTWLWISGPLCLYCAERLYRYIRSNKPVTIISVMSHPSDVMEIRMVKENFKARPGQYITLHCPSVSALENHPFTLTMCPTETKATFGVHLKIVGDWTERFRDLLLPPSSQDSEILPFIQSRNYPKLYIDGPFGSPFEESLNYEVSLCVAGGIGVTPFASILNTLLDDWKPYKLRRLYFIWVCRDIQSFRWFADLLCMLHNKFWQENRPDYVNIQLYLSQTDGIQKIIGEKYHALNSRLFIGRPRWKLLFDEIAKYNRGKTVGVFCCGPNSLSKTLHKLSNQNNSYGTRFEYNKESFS
# Sequence (P13498 2-195 partner limits assumed): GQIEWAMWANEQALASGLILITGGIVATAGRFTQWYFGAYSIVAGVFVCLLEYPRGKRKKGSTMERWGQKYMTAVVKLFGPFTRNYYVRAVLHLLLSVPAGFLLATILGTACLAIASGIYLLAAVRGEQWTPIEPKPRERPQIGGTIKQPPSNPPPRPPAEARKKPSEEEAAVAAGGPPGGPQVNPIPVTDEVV
pIC50: −log10 of the molar value.
assay_endpoint: pIC50

Some entries whose results are on file:
INSERT INTO measurements (compound, tested_system, data_value) VALUES
  ('O=c1c2scnc2nc(SCc2ccc(Cl)cc2)n1-c1ccc(O)nn1 [Example 64]', 'human NOX4 (hNOX4) (Homo sapiens, UniProt Q9NPH5)', 6.88),
  ('Cc1cc(Cl)ccc1CSc1nc2ncsc2c(=O)n1-c1ccc(O)nn1 [Example 62]', 'human NOX4 (hNOX4) (Homo sapiens, UniProt Q9NPH5)', 6.90),
  ('O=c1c2scnc2nc(SCc2c(F)cc(F)cc2F)n1-c1cc(F)c(O)nc1F [Example 51]', 'human NOX4 (hNOX4) (Homo sapiens, UniProt Q9NPH5)', 7.29),
  ('O=c1c2scnc2nc(SCc2c(F)cc(F)cc2F)n1-c1ncc(O)cn1 [Example 21]', 'human NOX4 (hNOX4) (Homo sapiens, UniProt Q9NPH5)', 6.76),
  ('O=c1c2scnc2nc(SCc2c(F)cc(F)cc2F)n1-c1ccc(O)cc1 [Example 15]', 'human NOX4 (hNOX4) (Homo sapiens, UniProt Q9NPH5)', 7.48);

1 = O=c1c2scnc2nc(SCc2ccc(Cl)cc2F)n1-c1ccc(O)nc1 [Example 22]
2 = N#Cc1cc(-n2c(SCc3c(F)cc(F)cc3F)nc3ncsc3c2=O)cnc1O [Example 47]
Kindly compare 1 with 2 and tell me which has the lower pIC50 figure. Respond with the label that goes with your answer.
2
